Exercise: for every item that follows, state its recorded pKi.
target: enzyme elastase; assay: Inhibition of the enzyme elastase, Ki / inhibitor dissociation constants; conditions: p-nitrophenyl at P1 replaced by N-phenylthiotetrazole
Recall that pKi is obtained by taking minus log10 of the concentration measured in molar.

Looking for the measured pKi of COC(=O)CCC(=O)NC(CCCNC(=O)OCc1ccccc1)C(=O)NC(C)C(=O)N1CCCC1C(=O)CN(C(=O)Sc1nnnn1-c1ccccc1)C(C)C (centres unmarked) , can you help?
8.52

Item under review: COC(=O)CCC(=O)NC(C)C(=O)NC(CCCCNC(=O)OCc1ccccc1)C(=O)N1CCCC1C(=O)CN(C(=O)Sc1nnnn1-c1ccccc1)C(C)C (centres unmarked) . Reported pKi?
7.70
